# Target desc: Alcaligenes faecalis Penicillin G acylase mutant A:M143V (Alcaligenes faecalis, UniProt O34142, M169V)
# Construct: alpha 202 aa, beta 551 aa; recombinant, E. coli host
# Run description: Deacylation kinetics and phenylacetic acid product inhibition, mutant A:M143V
# Protocol conditions: from progress curves of NIPAB deacylation, 25° C., 0.1 M NaH2PO4.H2O buffer pH 7.5, read-out: Ki Phenylacetic acid (inhibition constant, dissociation constant)
Measured metric: Ki
Answer with the figure and its unit, nothing else.

## Task Look up Ki for this compound: O=C(O)Cc1ccccc1
## Result 74 µM

====

# Target desc: Alcaligenes faecalis Penicillin G acylase mutant B:L56G (Alcaligenes faecalis, UniProt O34142, L321G)
# Construct: alpha 202 aa, beta 551 aa; recombinant, E. coli host
# Sequence (O34142 27-228): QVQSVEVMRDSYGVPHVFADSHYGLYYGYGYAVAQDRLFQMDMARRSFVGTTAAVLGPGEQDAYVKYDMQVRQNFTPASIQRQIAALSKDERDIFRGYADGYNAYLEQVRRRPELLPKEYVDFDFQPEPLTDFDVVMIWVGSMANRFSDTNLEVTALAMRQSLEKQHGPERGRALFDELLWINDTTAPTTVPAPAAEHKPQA
# Sequence (O34142 266-816 L321G): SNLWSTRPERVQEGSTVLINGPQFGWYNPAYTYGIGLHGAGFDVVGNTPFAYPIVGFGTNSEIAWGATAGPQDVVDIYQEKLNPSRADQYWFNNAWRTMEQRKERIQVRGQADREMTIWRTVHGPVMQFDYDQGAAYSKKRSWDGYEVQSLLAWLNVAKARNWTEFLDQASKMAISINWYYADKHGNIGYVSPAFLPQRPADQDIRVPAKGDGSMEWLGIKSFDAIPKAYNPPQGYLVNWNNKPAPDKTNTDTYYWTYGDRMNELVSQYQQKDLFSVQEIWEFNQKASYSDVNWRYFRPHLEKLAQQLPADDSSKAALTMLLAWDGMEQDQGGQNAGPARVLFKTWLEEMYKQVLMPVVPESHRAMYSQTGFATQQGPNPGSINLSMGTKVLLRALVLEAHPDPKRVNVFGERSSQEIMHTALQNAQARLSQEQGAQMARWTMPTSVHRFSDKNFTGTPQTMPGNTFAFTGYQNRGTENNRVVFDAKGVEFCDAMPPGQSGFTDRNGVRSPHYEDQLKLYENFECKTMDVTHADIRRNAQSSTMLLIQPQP
# Run description: NIPAB kinetics and phenylacetic acid product inhibition, mutant B:L56G
# Protocol conditions: from progress curves of NIPAB deacylation, 25° C., 0.1 M NaH2PO4.H2O buffer pH 7.5, read-out: Ki Phenylacetic acid (inhibition constant, dissociation constant)
# Method: In a continuous assay Penicillin G acylase was assayed spectro-fotometrically with the chromogenic substrate NIPAB [6-nitro-3-phenylacetamido-benzoic acid]. The liberation of 3-amino-6-nitrobenzoic acid was monitored by measuring the extinction at 405 nm in a Kontron 610 kinetic spectrofotometer. Measuring maximal rate, the assays were performed at 25° C. using 20 mM NaH2 PO4.H2 O at pH 7.5 with 20 mM NIPAB and 100 μl enzym solution (at a proper dilution). […]
Measured metric: Ki (µM)
Give just the numeric value; µM need not be written.

## Task Recorded Ki of O=C(O)Cc1ccccc1 [phenylacetic acid] , please.
## Result 55

====

# Target desc: Alcaligenes faecalis Penicillin G acylase mutant B:L56A (Alcaligenes faecalis, UniProt O34142, L321A)
# Construct: alpha 202 aa, beta 551 aa; recombinant, E. coli host
# Run description: NIPAB kinetics and phenylacetic acid product inhibition, mutant B:L56A
# Protocol conditions: from progress curves of NIPAB deacylation, 25° C., 0.1 M NaH2PO4.H2O buffer pH 7.5, read-out: Ki Phenylacetic acid (inhibition constant, dissociation constant)
Measured metric: pKi
Scale note: pKi = -log10(concentration in M).

## Task Record request: pKi value, item O=C(O)Cc1ccccc1
## Result 4.23

====

# Target desc: Alcaligenes faecalis Penicillin G acylase mutant B:L56K (Alcaligenes faecalis, UniProt O34142, L321K)
# Construct: alpha 202 aa, beta 551 aa; recombinant, E. coli host
# Run description: Deacylation kinetics and phenylacetic acid product inhibition, mutant B:L56K
# Protocol conditions: from progress curves of NIPAB deacylation, 25° C., 0.1 M NaH2PO4.H2O buffer pH 7.5, read-out: Ki Phenylacetic acid (inhibition constant, dissociation constant)
Measured metric: pKi
// pKi is dimensionless: -log10 of concentration (M)

## Task Query: pKi; subject: O=C(O)Cc1ccccc1
## Result 3.94

====

# Target desc: Alcaligenes faecalis Penicillin G acylase mutant B:I177S (Alcaligenes faecalis, UniProt O34142, I442S)
# Construct: alpha 202 aa, beta 551 aa; recombinant, E. coli host
# Run description: NIPAB kinetics and phenylacetic acid product inhibition, mutant B:I177S
# Protocol conditions: from progress curves of NIPAB deacylation, 25° C., 0.1 M NaH2PO4.H2O buffer pH 7.5, read-out: Ki Phenylacetic acid (inhibition constant, dissociation constant)
# Protocol: In a continuous assay Penicillin G acylase was assayed spectro-fotometrically with the chromogenic substrate NIPAB [6-nitro-3-phenylacetamido-benzoic acid]. The liberation of 3-amino-6-nitrobenzoic acid was monitored by measuring the extinction at 405 nm in a Kontron 610 kinetic spectrofotometer. Measuring maximal rate, the assays were performed at 25° C. using 20 mM NaH2 PO4.H2 O at pH 7.5 with 20 mM NIPAB and 100 μl enzym solution (at a proper dilution). […]
Measured metric: pKi
pKi is defined as minus the log10 of a concentration measured in mol/L.

## Task GET /values?readout=pKi&item= O=C(O)Cc1ccccc1
## Result 3.60

====

# Target desc: Alcaligenes faecalis Penicillin G acylase mutant B:L56V (Alcaligenes faecalis, UniProt O34142, L321V)
# Construct: alpha 202 aa, beta 551 aa; recombinant, E. coli host
# Run description: NIPAB kinetics and phenylacetic acid product inhibition, mutant B:L56V
# Protocol conditions: from progress curves of NIPAB deacylation, 25° C., 0.1 M NaH2PO4.H2O buffer pH 7.5, read-out: Ki Phenylacetic acid (inhibition constant, dissociation constant)
Measured metric: Ki (µM)
Kindly answer with a numeric value in µM, unit omitted.

## Task What measured Ki goes with O=C(O)Cc1ccccc1 [phenylacetic acid] ?
## Result 31
